Cited source: the supplement of paper PMC6555819

PBM binding z-score for assorted sequences
System: RARg homodimer (NR concentration 270 nM)
Assay: PBM binding z-score (relative to random genomic background probes); higher = stronger binding; sequences stand for … in GC…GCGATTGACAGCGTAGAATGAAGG
Lab note: record the figure alone, no unit after it.

Past entries and their recorded results:
1. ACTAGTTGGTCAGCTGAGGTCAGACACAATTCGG = 3.57
2. CGAACTAGGTCAATGACAGTGAATCTCCGCACGC = 4.07
3. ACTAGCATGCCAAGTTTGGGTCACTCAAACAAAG = 0.744
4. CCTACTGCGCCACGAAAGGTCATTGATTCAGTGA = 4
5. GCTCGGAGGACAATGTCAGAGCTTTGTCCGTAGA = 0.0822

Exercise: Consider the sequence shown here: TCGAGTAGGTTTCCAATGGGGCATTCAGCTTTCT What is its recorded PBM binding z-score?
Solution: -0.806

Exercise: I would be grateful if you could share the reported PBM binding z-score for CGTCAAGGTTCAACTAAGGTAACGTAAAGCACGC .
Solution: 2.98

Exercise: Find the recorded PBM binding z-score belonging to CAGCCTAGGTCTGGGCCAGTATAGGAGGAACGTT and report it.
Solution: -0.44

* * *

Listed sequences paired with reported PBM binding z-score
Test system: RARb:RXRa (NR concentration 270 nM, RXRa partner concentration 90 nM)
Assay: PBM binding z-score (relative to random genomic background probes); higher = stronger binding; sequences stand for … in GC…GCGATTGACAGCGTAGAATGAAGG
Give your answer as a number; write no unit.

Consider the following illustrative entries.
1. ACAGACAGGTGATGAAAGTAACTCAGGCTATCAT = 0.0648
2. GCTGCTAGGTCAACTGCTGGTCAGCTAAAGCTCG = 4.34
3. AGAGACAGGTGAGTGAAGGTAACTCAGCTGGACG = 0.876

Exercise: Give the measured PBM binding z-score of TAGCCTAGGTCATACGGGCCAGTATAGTGTCGGC .
Solution: 3.56

Exercise: Quick one: PBM binding z-score of CTCGAAAGGTCGTGCTGAGGTGAGTATACCAAAC ?
Solution: 3.93

Exercise: Entry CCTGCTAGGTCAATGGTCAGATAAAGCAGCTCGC : reported PBM binding z-score = ?
Solution: 3.65

* * *

Documented PBM binding z-score across a set of sequences
Tested on: PPARg:RXRa 270nM:90nM, anti-RXR (NR concentration 270 nM, RXRa partner concentration 90 nM)
Test: PBM binding z-score (relative to random genomic background probes); higher = stronger binding; sequences stand for … in GC…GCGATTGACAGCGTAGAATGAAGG
Provide a numeric answer; units are not to be included.

As a guide, the following entries are already answered.
1) TCATATAGGTAAACAGGTCAAAGTCCGTAAGTTA = 5.37
2) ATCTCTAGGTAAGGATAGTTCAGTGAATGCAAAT = 0.182
3) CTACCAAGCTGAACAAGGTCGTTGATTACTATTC = 0.00986
4) GCATATAGGTAATACAAGGAGAAAGTCCGATTGT = 0.421
5) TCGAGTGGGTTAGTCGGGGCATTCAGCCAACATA = 0.869
6) GCTGCTAGGTCAACGGATGGTCAGCTAAAGCTCG = 2.83

Exercise: May I ask what PBM binding z-score has been recorded for ACTTACGGGTCAACGAGGTTATAGGACGCGTATA ?
Solution: 5.53

Exercise: Fill blank: measured PBM binding z-score of the sequence CGTCCAAGGTCAATGCTAGGTCAGTGTAAGCATT is ____.
Solution: 4.67

Exercise: So what's the measured PBM binding z-score for this one? AGTCAAAGTTCAGGACGAGGTAACGTACAGCACG
Solution: 4.76

* * *

System: PPARg:RXRa (NR concentration 180 nM, RXRa partner concentration 90 nM)
Assay: PBM binding z-score (relative to random genomic background probes); higher = stronger binding; sequences stand for … in GC…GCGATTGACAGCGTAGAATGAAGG
Quantity name: PBM binding z-score
The reply should be a number, written without any unit.

1) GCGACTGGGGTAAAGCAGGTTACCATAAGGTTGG = 0.941
2) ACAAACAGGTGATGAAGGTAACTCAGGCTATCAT = 0.866
3) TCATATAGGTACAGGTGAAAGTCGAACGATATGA = 1.23
4) TCGAGTTGGTTACCAATGGGGCATTCAGCTTTCT = -0.676

Exercise: For CAAACTAGGTCACGAAACGTCAAAGTCGAATGAC , what is its reported PBM binding z-score?
Solution: 9.06

Exercise: Which PBM binding z-score is reported for this sequence? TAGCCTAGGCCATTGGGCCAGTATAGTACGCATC
Solution: 0.237

Exercise: GET /values?readout=PBM binding z-score&item= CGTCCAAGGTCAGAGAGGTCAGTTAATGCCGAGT
Solution: 3.34

Exercise: Quick one: PBM binding z-score for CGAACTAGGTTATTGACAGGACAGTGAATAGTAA ?
Solution: 2.41

Exercise: Entry under review: CCTAGTTGGTCAAGGTCACACAAGCTATAGGTAC . Reported PBM binding z-score?
Solution: 3.5

Exercise: Which PBM binding z-score value belongs to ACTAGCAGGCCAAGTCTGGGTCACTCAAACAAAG ?
Solution: 0.901

Exercise: Requested field: PBM binding z-score. Item: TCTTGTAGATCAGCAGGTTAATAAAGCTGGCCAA
Solution: -0.26

Exercise: // returns reported PBM binding z-score for input CCTACTGGGCCATTCAGAGGTCATTAATCATATG
Solution: 1.99

* * *

System: RARg homodimer (NR concentration 270 nM)
Assay: PBM binding z-score (relative to random genomic background probes); higher = stronger binding; sequences stand for … in GC…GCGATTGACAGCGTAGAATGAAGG
Catalogue of PBM binding z-score readings, one per entry.
Respond using a number only.

Exercise: Which value of PBM binding z-score has been reported for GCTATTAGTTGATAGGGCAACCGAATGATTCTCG in the records?
Solution: 0.649

Exercise: Given CATACAGGGTCAGCAAGGCCAGAGTAGGGACGGC , state its recorded PBM binding z-score.
Solution: 5.18

Exercise: Name the reported PBM binding z-score value associated with the sequence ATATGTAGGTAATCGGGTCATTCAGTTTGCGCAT
Solution: 1.32

Exercise: Which PBM binding z-score is listed for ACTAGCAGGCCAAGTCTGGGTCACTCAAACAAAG ?
Solution: 1.48

Exercise: // query PBM binding z-score value for entry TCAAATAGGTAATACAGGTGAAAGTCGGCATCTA
Solution: 0.49

Exercise: What does the record list as PBM binding z-score for ACTATTAGTTAAGACGAGGGCAACCGATAGGTTG ?
Solution: 0.902

Exercise: Which measured PBM binding z-score value corresponds to AGAATGAGGTTACCAAAGATTAGGGAAACGCTTG ?
Solution: 1.59

Exercise: Requested field: PBM binding z-score. Item: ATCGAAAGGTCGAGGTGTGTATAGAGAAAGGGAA
Solution: 4.18

Exercise: Record request: PBM binding z-score value, item TCTAGTTGGACAAAGGTCACACACTCGAAATGCG
Solution: 5.93

Exercise: Reported PBM binding z-score for CCTACTGGGCCACGAAACGTCATTGATTCAGTGA : what is it?
Solution: 0.105

Exercise: Item under review: CCGAGTAGGTTATGGGTCATTCAGGCAACGGTGA . Reported PBM binding z-score?
Solution: 2.15

Exercise: Quick one: PBM binding z-score for TCATATAGGTAAACGTGAAAGTCGAACGATATGA ?
Solution: 0.326

* * *

System: PPARg:RXRa 90nM:30nM, anti-RXR (NR concentration 90 nM, RXRa partner concentration 30 nM)
Experiment: PBM binding z-score (relative to random genomic background probes); higher = stronger binding; sequences stand for … in GC…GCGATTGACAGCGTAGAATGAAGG
Quantity name: PBM binding z-score

1) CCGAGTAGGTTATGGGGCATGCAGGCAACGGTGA = 4.14
2) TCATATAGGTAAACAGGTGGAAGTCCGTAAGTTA = 3.06
3) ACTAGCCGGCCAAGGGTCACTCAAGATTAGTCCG = 5.18
4) CAAACTAGGTCAAGGTCGAAGTCGGTTTGTGCCA = 7.19
5) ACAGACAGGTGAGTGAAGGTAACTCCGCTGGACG = -0.389

Exercise: Provide the documented PBM binding z-score with PPARg:RXRa 90nM:30nM, anti-RXR (NR concentration 90 nM, RXRa partner concentration 30 nM) as the system for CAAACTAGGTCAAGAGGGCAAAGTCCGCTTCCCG
Solution: 7.15

Exercise: Query PBM binding z-score on PPARg:RXRa 90nM:30nM, anti-RXR (NR concentration 90 nM, RXRa partner concentration 30 nM) for TGATATAGGTAATACAGGTGAAAGTCGGCATCTA
Solution: 2.05
